Would you kindly list pIC50 for each of these compounds?
system: P. falciparum 3D7 growth, pLDH absorbance; assay: blood-stage malaria parasite growth potency – strain 3D7, dose response (AID 2305)
One number for each entry, as −log10 of the molar value.

Would you please look over these solved cases?
Field: pIC50 (P. falciparum 3D7 growth, pLDH absorbance). Entry: COc1ccc2nc3cc(Cl)ccc3c(NCCCCCCNc3c4ccc(Cl)cc4nc4ccc(OC)cc34)c2c1 6.18

Field: pIC50 (P. falciparum 3D7 growth, pLDH absorbance). Entry: OC(CNCc1ccccc1OCc1ccccc1)c1cccc(C(F)(F)F)c1 (stereo not given) 6.44

Field: pIC50 (P. falciparum 3D7 growth, pLDH absorbance). Entry: CC(C)CCN=C(N)c1ccc(OCCCCCOc2ccc(C(N)=NCCC(C)C)cc2)cc1 6.28

Field: pIC50 (P. falciparum 3D7 growth, pLDH absorbance). Entry: O=C(C=Cc1ccc(Cl)c(Cl)c1)NCCCCCN1CCC(CCNS(=O)(=O)c2ccc(Br)cc2)CC1 5.95

Field: pIC50 (P. falciparum 3D7 growth, pLDH absorbance). Entry: CN(C(=O)c1snnc1-c1ccccc1)C1CCN(CCCCCNC(=O)/C=C/c2ccc(Cl)c(Cl)c2)CC1 6.72

Hi team, please reply with pIC50 for each item in this list.
1. CC(C)(C)c1ccc(-c2csc(NC(=O)CC(c3ccccc3)c3ccccc3)n2)cc1
2. O=C(/C=C/c1cccc(C(F)(F)F)c1)NCCCCCN1CCC(c2c[nH]c3ccccc23)CC1
3. CN1CCN(CC(=O)Nc2cccc(-c3ccc(-c4nc5ccc(F)cc5[nH]4)cc3)c2)CC1

5.94
6.08
6.15

Hi team, please reply with pIC50 for each item in this list.
1. COc1ccc2nccc([C@@H](O)CN3CCC(NCc4nc5ccccc5[nH]4)CC3)c2c1
2. O=C(/C=C/c1ccc(Cl)c(Cl)c1)NC1CCC(CN2CCC(c3cc4ccccc4[nH]3)CC2)CC1 (stereo not given)

1. 5.97
2. 6.00

* * *

Would you kindly list IC50 for each of these molecules?
tested on: P. falciparum 3D7 growth, pLDH absorbance; assay: blood-stage malaria parasite growth potency – strain 3D7, dose response (AID 2305)
Answers are plain numbers, in nM.

Field: IC50 (P. falciparum 3D7 growth, pLDH absorbance). Entry: CC(C)CC1c2[nH]c3ccccc3c2CCN1C(=O)CCc1ccccc1 (stereo not drawn) 970

Field: IC50 (P. falciparum 3D7 growth, pLDH absorbance). Entry: COc1ccc2nccc([C@@H](O)CN3CCC(NCc4ccc(OC)c(NC(C)=O)c4)CC3)c2c1 840

Field: IC50 (P. falciparum 3D7 growth, pLDH absorbance). Entry: CN(CCCCN)Cc1ccc(-c2ccc(Cl)cc2)cc1 880

Field: IC50 (P. falciparum 3D7 growth, pLDH absorbance). Entry: CC(=O)N/N=C/[C@H](CCc1ccccc1)NC(=O)[C@H](CC(C)C)NC(=O)c1ccc(F)cc1 690

Field: IC50 (P. falciparum 3D7 growth, pLDH absorbance). Entry: Nc1ncnc2occ(-c3ccc(NC(=O)Nc4cc(C(F)(F)F)ccc4F)cc3)c12 1720

Field: IC50 (P. falciparum 3D7 growth, pLDH absorbance). Entry: Cc1[nH]c2ccc(O)cc2c1C1CCN(CC2CCC(NC(=O)/C=C/c3c(Cl)cccc3Cl)CC2)CC1 (stereo not drawn) 820

Hi team, please reply with IC50 for each item in this list.
1. COc1ccc(-n2nc(C)c3c2NC(=O)CC3c2ccccc2OCc2ccccc2F)cc1 (stereo not drawn)
2. COc1ccc(C(=O)NCc2ccc(N)nc2C)cc1Nc1ncc(-c2cccc(N(C)C)c2)cn1
3. Cc1noc(-c2ccc3c(c2)CCN(CCC2CCC(NC(=O)/C=C/c4ccc(F)cc4)CC2)CC3)n1 (stereo not drawn)
4. CC(CN(C)C)C(=O)Nc1cccc(-c2ccc(-c3nc4ccc(F)cc4[nH]3)s2)c1 (stereo not drawn)
5. O=C(CSc1nc2ccccc2c(=O)n1C1CC1)Nc1cc(C(F)(F)F)ccc1Cl

1: 900; 2: 900; 3: 1030; 4: 800; 5: 110

* * *

test system: P. falciparum 3D7 growth, pLDH absorbance; experiment: blood-stage malaria parasite growth potency – strain 3D7, dose response (AID 2305)
Would you kindly list pIC50 for each of these compounds?
Give bare numbers, as −log10 of the molar value.

Would you please look over these solved cases?
Entry under review: CCNc1cc(CCCC(=O)OCC)nc(Nc2ccc(C)cc2)n1 . Reported pIC50? 6.11

Entry under review: CC(=NNC(=S)Nc1ccccc1Cl)c1ccccn1 . Reported pIC50? 7.10

Entry under review: Cc1ccc(-c2cc(C(=O)Nc3ccc(S(=O)(=O)N4CCCCC4C)cc3)[nH]n2)c(O)c1 (stereo not given) . Reported pIC50? 5.97

Entry under review: CCCNCc1ccc(-c2ccc(CN(CCOC)C(=O)c3cccc(C#N)c3)cc2)nc1 . Reported pIC50? 5.91

Hi team, please reply with pIC50 for each item in this list.
1. Cc1ccc(Cl)cc1N1CCN(CCCNC(=O)C2CCN(c3nc4ccccc4[nH]3)CC2)CC1
2. COc1ccc(C2c3ccccc3-c3nc(N)nc(N)c3C2C)cc1 (stereo not given)
3. NC(=O)C1CCN(Cc2ccc(-c3ccc(-c4nc5ccc(C(F)(F)F)cc5[nH]4)s3)cc2)CC1
4. CN(C)CCCOc1c(C(C)(C)C)cc(-c2cc(C(C)(C)C)c(OCCCN(C)C)c(C(C)(C)C)c2)cc1C(C)(C)C
5. O=C(Nc1cccc(-c2cccc(-c3nc4ccccc4[nH]3)c2)c1)c1ccoc1

1. 6.05
2. 6.62
3. 6.27
4. 6.57
5. 6.13

* * *

Would you kindly list pIC50 for each of these compounds?
system: P. falciparum 3D7 growth, pLDH absorbance; assay: blood-stage malaria parasite growth potency – strain 3D7, dose response (AID 2305)
Give bare numbers, as −log10 of the molar value.

Entry under review: COc1cccc(CNC[C@@H](O)[C@H](Cc2ccccc2)NC(=O)c2cc(C3CCCC3)cc(N3CCCCS3(=O)=O)c2)c1 . Reported pIC50? 6.22

Entry under review: COc1ccc(-c2ccc(NC(=O)c3ccc(C#N)cc3)cc2)cc1CN(C)CCN(C)C . Reported pIC50? 6.18

Entry under review: OCCN1CCN(Cc2ccc(-c3ccc(-c4nc5ccc(C(F)(F)F)cc5[nH]4)s3)cc2)CC1 . Reported pIC50? 6.42

Hi team, please reply with pIC50 for each item in this list.
1. Cn1cccc1C(=O)C(=O)Nc1ccc(-c2ccc(-c3nc4ccc(F)cc4[nH]3)cc2)cc1
2. COC(=O)c1cc(OC)c(OC)cc1NC(=O)NC12CC3CC(CC(C3)C1)C2

6.08
6.06

* * *

test system: P. falciparum 3D7 growth, pLDH absorbance; experiment: blood-stage malaria parasite growth potency – strain 3D7, dose response (AID 2305)
Would you kindly list IC50 for each of these compounds?
Answers are plain numbers, in nM.

Would you please look over these solved cases?
Entry under review: O=C(c1cccc(Cl)c1)N1CCN(c2ccc([N+](=O)[O-])c(NC3CC3)c2)CC1 . Reported IC50? 870

Entry under review: COc1ccc(-c2ccc(CNCc3ccccc3)cc2)cc1S(=O)(=O)NCCN1CCCC1 . Reported IC50? 730

Entry under review: O=C(/C=C/c1ccc(Cl)c(Cl)c1)NCCCCCCN1CCCN(C(=O)Nc2ccc(F)c(Cl)c2)CC1 . Reported IC50? 740

Entry under review: COC(=O)c1cccc(NC(=O)NC2CCN(c3ccnc(NCc4ccc(F)cc4)n3)CC2)c1 . Reported IC50? 810

Hi team, please reply with IC50 for each item in this list.
1. N#Cc1ccc(CN2CCC(Oc3ccc(NC(=O)c4cccs4)cc3Cl)C2)cc1 (stereo not drawn)
2. CCOc1cc(C(=O)NCCCN2CCCCC2C)ccc1-c1nc2ccc(Cl)cc2[nH]1 (stereo not drawn)
3. Cc1cc(N[C@@H](Cc2ccccc2)C(=O)NCc2cccc(F)c2)nc(NCC2CCCCC2)n1
4. CNC(=O)Cc1ccc(C(=O)Nc2cccc(-c3ccc(-c4nc5c(C)cccc5[nH]4)s3)c2)cc1

[400, 1070, 850, 630]

* * *

test system: P. falciparum 3D7 growth, pLDH absorbance; experiment: blood-stage malaria parasite growth potency – strain 3D7, dose response (AID 2305)
Value kind: pIC50
One number for each entry, as −log10 of the molar value.

Would you please look over these solved cases?
Entry under review: Cc1nn(CC(O)Cn2c3ccc(Br)cc3c3cc(Br)ccc32)c(C)c1Br (stereo not given) . Reported pIC50? 6.15

Entry under review: O=C(Nc1ccc(Cl)c(C(F)(F)F)c1)NC1CCN(CCCCCNC(=O)[C@@H]2C[C@H]2c2ccc(Cl)c(Cl)c2)CC1 . Reported pIC50? 6.17

Entry under review: COc1csc2cc(Br)ccc12 . Reported pIC50? 6.07

Entry under review: Cc1nnsc1C(=O)Nc1cccc(-c2ccc(-c3nc4ccccc4[nH]3)cc2)c1 . Reported pIC50? 6.06

Entry under review: CC(=O)NCCNc1nccc(N2CCc3ncnc(Nc4ccc(OCc5cccc(F)c5)c(Cl)c4)c3C2)n1 . Reported pIC50? 6.89

Entry under review: CCOCCCNc1sc(S(=O)(=O)c2ccccc2)nc1S(=O)(=O)c1ccc(C)cc1 . Reported pIC50? 6.09

Entry under review: CN1CCN(CCc2ccc3nc(-c4csc(Cc5cc(Cl)ccc5OCc5ccccc5)n4)[nH]c3c2)CC1 . Reported pIC50? 6.12

Entry under review: O=C(Nc1ccsc1)Nc1cccc(-c2cccc(-c3nc4ccccc4[nH]3)c2)c1 . Reported pIC50? 6.92

Entry under review: Cc1ccn2cc(-c3ccc(NC(=O)c4ccc(Br)o4)cc3)nc2c1 . Reported pIC50? 6.13

---
Entry under review: Cc1[nH]c2ccccc2c1C1=CCN(CCCCCNC(=O)/C=C/c2ccc(Cl)c(Cl)c2)CC1 . Reported pIC50? 6.57

Values compiled from PubChem BioAssay AID2305.
